Every entry's value here was drawn from DBAASP.

system: Pseudomonas aeruginosa; test: ≥ marks a high value that may be exact or a test limit, other limits are often not marked, values filed in µg/mL are converted to µM
parameter_measured: MIC (µM)
Number only, in µM; omit the unit.

Sample records with MIC:
compound_structure_string	parameter_measured	value_observed
CC[C@H](C)[C@H](NC(=O)[C@H](CCCCN)NC(=O)[C@H](C)NC(=O)CNC(=O)[C@@H](NC(=O)[C@H](CCCCN)NC(=O)[C@@H](NC(=O)[C@H](CCCCN)NC(=O)[C@H](C)NC(=O)CNC(=O)[C@H](Cc1c[nH]c2ccccc12)NC(=O)[C@H](CCCCN)NC(=O)[C@@H](NC(=O)[C@H](CCCCN)NC(=O)[C@H](C)NC(=O)CNC(=O)[C@@H](NC(=O)[C@@H](N)CCCCN)[C@@H](C)CC)[C@@H](C)CC)[C@@H](C)CC)[C@@H](C)CC)C(N)=O	MIC	4.16
CC[C@H](C)[C@H](NC(=O)[C@@H](N)CCCCN)C(=O)N[C@@H](C)C(=O)N[C@@H](CC(C)C)C(=O)N[C@@H](CCCCN)C(=O)N[C@@H](C)C(=O)N[C@@H](CC(C)C)C(=O)N[C@@H](CCCCN)C(=O)N[C@@H](C)C(=O)N[C@@H](CC(C)C)C(=O)N[C@@H](CCCCN)C(=O)N[C@@H](C)C(=O)N[C@@H](CC(C)C)C(=O)NCC(=O)N[C@@H](CCCCN)C(=O)N[C@@H](C)C(=O)N[C@@H](CC(C)C)C(=O)N[C@@H](CCCCN)C(=O)N[C@@H](C)C(=O)N[C@@H](CC(C)C)C(N)=O	MIC	32
CC[C@H](C)[C@H](NC(=O)[C@H](Cc1c[nH]c2ccccc12)NC(=O)[C@H](CCCN=C(N)N)NC(=O)[C@H](CCC(N)=O)NC(=O)[C@@H](NC(=O)[C@H](Cc1c[nH]c2ccccc12)NC(=O)[C@H](CCCN=C(N)N)NC(=O)[C@@H](N)CCCN=C(N)N)C(C)C)C(=O)N[C@@H](CCCN=C(N)N)C(=O)N[C@@H](CCCN=C(N)N)C(=O)N[C@@H](Cc1c[nH]c2ccccc12)C(=O)N[C@@H](CCCN=C(N)N)C(=O)N[C@@H](CCCCN)C(=O)N[C@@H](Cc1c[nH]c2ccccc12)C(=O)N[C@H](C(=O)O)C(C)C	MIC	20

As a next step, examine the molecule that follows.
### Prompt Look up MIC: CC[C@H](C)[C@H](NC(=O)[C@H](CC(C)C)NC(=O)[C@H](Cc1cnc[nH]1)NC(=O)CNC(=O)[C@H](CC(C)C)NC(=O)[C@@H](NC(=O)[C@H](CCCCN)NC(=O)[C@H](CO)NC(=O)[C@H](Cc1c[nH]c2ccccc12)NC(=O)[C@H](CCSC)NC(=O)CN)[C@@H](C)CC)C(N)=O
### Response 100

---

test system: Escherichia coli; experiment: ≥ marks a high value that may be exact or a test limit, other limits are often not marked, values filed in µg/mL are converted to µM
parameter_measured: MIC

compound_structure_string	MIC
CC[C@H](C)[C@H](NC(=O)[C@H](CO)NC(=O)CNC(=O)[C@H](C)NC(=O)[C@@H](NC(=O)[C@H](Cc1cnc[nH]1)NC(=O)CNC(=O)[C@H](C)NC(=O)[C@@H](NC(=O)[C@H](CCCCN)NC(=O)[C@H](CCCCN)NC(=O)[C@@H](NC(=O)[C@@H](NC(=O)[C@H](CC(=O)O)NC(=O)[C@H](Cc1ccccc1)NC(=O)[C@H](CC(C)C)NC(=O)CN)[C@@H](C)CC)C(C)C)[C@@H](C)CC)[C@@H](C)CC)C(N)=O	> 57.5 µM
CC[C@H](C)[C@H](NC(=O)CNC(=O)[C@H](C)NC(=O)[C@H](Cc1ccc(O)cc1)NC(=O)[C@@H](NC(=O)[C@H](CC(C)C)NC(=O)[C@H](C)N)C(C)C)C(=O)N[C@@H](CCCCN)C(=O)N[C@@H](CCCCN)C(=O)N[C@H](C(=O)N[C@@H](C)C(=O)N[C@@H](Cc1ccccc1)C(=O)N[C@@H](CC(C)C)C(=O)N[C@@H](CCCCN)C(=O)N[C@H](C(=O)N[C@@H](CCC(N)=O)C(=O)N[C@@H](CCCCN)C(=O)N[C@@H](CS)C(=O)N[C@@H](CC(=O)O)C(=O)NCC(=O)O)C(C)C)[C@@H](C)O	> 119 µM
CC[C@H](C)[C@H](NC(=O)[C@H](CCCCN)NC(=O)[C@@H](NC(=O)[C@H](C)NC(=O)[C@@H](NC(=O)[C@H](CC(C)C)NC(=O)[C@H](CCCCN)NC(=O)[C@H](C)NC(=O)[C@@H](NC(=O)[C@@H](NC(=O)CNC(=O)[C@@H](NC(=O)[C@H](CC(C)C)NC(=O)[C@@H](N)[C@@H](C)O)C(C)C)C(C)C)C(C)C)C(C)C)[C@@H](C)O)C(=O)NCC(=O)N[C@@H](CO)C(=O)N[C@@H](CO)C(=O)N1CCC[C@H]1C(=O)N[C@@H](CCCN=C(N)N)C(=O)N[C@@H](C)C(=O)O	> 130 µM

Field: next compound
### Prompt What does the record list as MIC for CC[C@H](C)[C@H](NC(=O)[C@H](CCCCN)NC(=O)[C@@H](NC(=O)[C@@H](NC(=O)[C@H](Cc1ccc(O)cc1)NC(=O)[C@@H](NC(=O)[C@@H](N)CCCCN)C(C)C)C(C)C)C(C)C)C(=O)N[C@@H](C)C(=O)N[C@H](C(=O)N1CCC[C@H]1C(=O)N[C@@H](CS)C(=O)N[C@@H](Cc1ccccc1)C(=O)N1CCC[C@H]1C(=O)N[C@@H](CCCCN)C(=O)N[C@@H](CO)C(=O)N[C@@H](C)C(=O)N[C@@H](CCCN=C(N)N)C(=O)N[C@@H](CO)C(=O)N[C@H](C(=O)N[C@@H](CO)C(=O)O)C(C)C)C(C)C ?
### Response > 118 µM
